molecular target: recombinant human GPR52 (Homo sapiens); test: GPR52 activity: TR-FRET cAMP assay (LANCE Ultra cAMP Kit); conditions: Flp-In-CHO cells stably expressing recombinant human GPR52; cAMP production, normalized to positive control
pEC50: −log10 of the molar value. Counter-ions that a name gives are not always drawn.
EXPERIMENTAL_READOUT: pEC50

- COMPOUND: "Cc1cc(-c2cc(Cc3cc(F)c(F)c(C#N)c3)c(F)cn2)ccc1C(N)=O"
  VALUE: "7.00 to 7.60"
- COMPOUND: "Cc1cc(-c2cc(Cc3cc(F)cc(C#N)c3)ccn2)ccc1C(N)=O"
  VALUE: "> 7.60"
- COMPOUND: "COc1ccc(Cc2ccnc(-c3ccc(C(N)=O)cc3)c2)cc1F"
  VALUE: "6.00 to 7.00"
- COMPOUND: "Cc1cc(-c2cc(Cc3cccc(S(C)(=O)=O)c3)c(F)cn2)ccc1C(N)=O [Compound 31, hydrochloride]"
  VALUE: "7.00 to 7.60"

Ask | # query: pEC50 of entry NC(=O)C1CCN(c2cc(Cc3cccc(C(F)(F)F)c3)ccn2)CC1
Reply | 7.00 to 7.60

Ask | # query: pEC50 of entry COc1cc(-c2cc(Cc3cc(F)c(F)c(C#N)c3)ccn2)ccc1C(N)=O
Reply | 7.00 to 7.60

Ask | # query: pEC50 of entry NC(=O)c1cccc(-c2cc(Cc3cc(F)cc(Cl)c3)ccn2)c1
Reply | 6.00 to 7.00

* * *

Reported pEC50 is given for each of the following molecules.
target: recombinant human GPR52 (Homo sapiens, UniProt Q9Y2T5); assay: GPR52 activity: TR-FRET cAMP assay (LANCE Ultra cAMP Kit); conditions: Flp-In-CHO cells stably expressing recombinant human GPR52; cAMP production, normalized to positive control
Sequence (Q9Y2T5 whole entry): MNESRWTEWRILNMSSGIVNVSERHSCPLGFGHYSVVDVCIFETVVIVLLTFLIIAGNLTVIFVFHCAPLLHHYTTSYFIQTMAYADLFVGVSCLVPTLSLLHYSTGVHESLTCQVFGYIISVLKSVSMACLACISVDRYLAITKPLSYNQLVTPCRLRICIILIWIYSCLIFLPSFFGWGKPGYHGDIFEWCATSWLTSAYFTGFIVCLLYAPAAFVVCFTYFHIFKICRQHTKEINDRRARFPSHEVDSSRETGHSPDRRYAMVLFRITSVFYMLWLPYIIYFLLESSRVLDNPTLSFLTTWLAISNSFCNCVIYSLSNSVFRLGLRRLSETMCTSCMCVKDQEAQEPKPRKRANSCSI
pEC50: −log10 of the molar value. Counter-ions that a name gives are not always drawn.

Consider the reported pEC50 for these molecules:
- MOLECULE: "NC(=O)c1ccc(-c2cc(Cc3cccc(OC(F)(F)F)c3)ccn2)cc1 [Compound 26]"
  pEC50: "6.00 to 7.00"
- MOLECULE: "Cc1cc(-c2cc(Cc3cccc(C(F)(F)F)c3)ccn2)ccc1C(N)=O [Compound 1]"
  pEC50: "> 7.60"
- MOLECULE: "Cc1cc(F)cc(Cc2ccnc(-c3ccc(C(N)=O)cc3)c2)c1 [Compound 28]"
  pEC50: "6.00 to 7.00"
- MOLECULE: "NC(=O)c1cccc(-c2cc(Cc3cc(F)cc(C(F)(F)F)c3)ccn2)c1 [Compound 17]"
  pEC50: "7.00 to 7.60"
- MOLECULE: "CS(=O)(=O)c1cccc(Cc2ccnc(-c3ccc(C(N)=O)cc3)c2)c1 [Compound 27]"
  pEC50: "6.00 to 7.00"

Ask | Query pEC50 on recombinant human GPR52 (Homo sapiens, UniProt Q9Y2T5) for Cc1cc(-c2cc(Cc3cccc(C(F)(F)F)c3)ccn2)ccc1C(=O)NCCO [Compound 36]
Reply | 7.00 to 7.60

Ask | Query pEC50 on recombinant human GPR52 (Homo sapiens, UniProt Q9Y2T5) for N#Cc1cc(Cc2ccnc(-c3ccc(C(N)=O)c(C(F)(F)F)c3)c2)cc(F)c1F [Compound 6]
Reply | > 7.60

Ask | Query pEC50 on recombinant human GPR52 (Homo sapiens, UniProt Q9Y2T5) for Cc1cc(-c2cc(Cc3cccc(C(F)(F)F)c3)ccn2)ccc1C(=O)N1CCNCC1 [Compound 35, hydrochloride]
Reply | > 7.60

Ask | Query pEC50 on recombinant human GPR52 (Homo sapiens, UniProt Q9Y2T5) for N#Cc1cc(Cc2ccnc(-c3ccc(C(N)=O)c(F)c3)c2)cc(F)c1F [Compound 24]
Reply | 6.00 to 7.00

Ask | Query pEC50 on recombinant human GPR52 (Homo sapiens, UniProt Q9Y2T5) for NC(=O)Cc1cccc(-c2cc(Cc3cccc(C(F)(F)F)c3)ccn2)c1 [Compound 16]
Reply | 7.00 to 7.60

Ask | Query pEC50 on recombinant human GPR52 (Homo sapiens, UniProt Q9Y2T5) for N#Cc1cc(Cc2ccnc(-c3cccc(C(N)=O)c3)c2)cc(F)c1F [Compound 38]
Reply | 6.00 to 7.00

Ask | Query pEC50 on recombinant human GPR52 (Homo sapiens, UniProt Q9Y2T5) for Cc1cc(Cc2ccnc(-c3ccc(C(N)=O)cc3)c2)ccc1F [Compound 10]
Reply | 7.00 to 7.60

Ask | Query pEC50 on recombinant human GPR52 (Homo sapiens, UniProt Q9Y2T5) for Cc1cc(-c2cc(Cc3cccc(S(C)(=O)=O)c3)ccn2)ccc1C(N)=O [Compound 11, hydrochloride]
Reply | 7.00 to 7.60

* * *

Reported pEC50 is given for each of the following molecules.
Target: recombinant human GPR52 (Homo sapiens, UniProt Q9Y2T5)
Assay: GPR52 activity: TR-FRET cAMP assay (LANCE Ultra cAMP Kit)
Conditions: Flp-In-CHO cells stably expressing recombinant human GPR52; cAMP production, normalized to positive control
Experimental: TR-FRET cAMP assays were performed using commercially available assay kits (LANCE™ Ultra cAMP Kit). […] Cells were harvested with cell stripper and resuspended in Stimulation Buffer (5 mM HEPES, 0.1% bovine serum albumin (BSA), 0.5 mM IBMX, pH 7.4). […] The LANCE™ Ultra cAMP assay uses time-resolved fluorescence resonance energy transfer (TR-FRET) to detect cAMP production; this signal was quantified using a Pherastar multi-mode plate reader. […]
pEC50: −log10 of the molar value. Structures can show the parent of a compound that is named as a salt.

Consider the reported pEC50 for these molecules:
- MOLECULE: "NC(=O)Cc1ccc(-c2cc(Cc3cccc(C(F)(F)F)c3)ccn2)cc1"
  pEC50: "7.00 to 7.60"
- MOLECULE: "Cc1cc(-c2cc(Cc3cccc(S(=O)(=O)C(F)(F)F)c3)ccn2)ccc1C(N)=O [Compound 34, hydrochloride]"
  pEC50: "6.00 to 7.00"
- MOLECULE: "COc1cc(Cc2ccnc(-c3ccc(C(N)=O)c(C)c3)c2)cc(F)c1F"
  pEC50: "> 7.60"
- MOLECULE: "N#Cc1cc(Cc2ccnc(-c3ccc(C(N)=O)cc3)c2)cc(F)c1F [Compound 30, hydrochloride]"
  pEC50: "6.00 to 7.00"
- MOLECULE: "Cc1cc(-c2cc(Cc3ccc(F)c(C#N)c3)ccn2)ccc1C(N)=O"
  pEC50: "7.00 to 7.60"

Ask | # query: pEC50 of entry Cc1cc(Cc2ccnc(-c3cccc(C(N)=O)c3)c2)ccc1F
Reply | 7.00 to 7.60

Ask | # query: pEC50 of entry Cc1cc(-c2cc(Cc3cncc(S(C)(=O)=O)c3)ccn2)ccc1C(N)=O
Reply | > 7.60

* * *

Reported EC50 is given for each of the following molecules.
target: recombinant human GPR52 (Homo sapiens); assay: GPR52 activity: TR-FRET cAMP assay (LANCE Ultra cAMP Kit); settings: Flp-In-CHO cells stably expressing recombinant human GPR52; cAMP production, normalized to positive control

Consider the reported EC50 for these molecules:
- CPD_SMILES: "Cc1cc(-c2cc(Cc3cccc(C(F)(F)F)c3)ccn2)ccc1C(=O)NCCCO"
  EC50: "25 to 100 nM"
- CPD_SMILES: "NC(=O)c1ccc(-c2cc(Cc3cc(F)cc(Cl)c3)ccn2)cc1"
  EC50: "101 to 1000 nM"
- CPD_SMILES: "CSc1cccc(Cc2ccnc(-c3ccc(C(N)=O)c(C)c3)c2)c1"
  EC50: "< 25 nM"
- CPD_SMILES: "Cc1cc(-c2cc(Cc3cc(F)c(F)c(C#N)c3)ccn2)ccc1C(N)=O"
  EC50: "25 to 100 nM"

Ask | # query: EC50 of entry Cc1cc(F)cc(Cc2ccnc(-c3cccc(C(N)=O)c3)c2)c1
Reply | 101 to 1000 nM

* * *

biological target: recombinant human GPR52 (Homo sapiens, UniProt Q9Y2T5); experiment: GPR52 activity: TR-FRET cAMP assay (LANCE Ultra cAMP Kit); conditions: Flp-In-CHO cells stably expressing recombinant human GPR52; cAMP production, normalized to positive control
EXPERIMENTAL_READOUT: EC50

Consider the reported EC50 for these compounds:
- CPD_SMILES: "N#Cc1cc(Cc2ccnc(-c3ccc4c(c3)CCNC4=O)c2)ccc1F"
  TARGET_ENTITY: "recombinant human GPR52 (Homo sapiens, UniProt Q9Y2T5)"
  EC50: "101 to 1000 nM"
- CPD_SMILES: "N#Cc1cc(Cc2ccnc(-c3cccc(CC(N)=O)c3)c2)cc(F)c1F"
  TARGET_ENTITY: "recombinant human GPR52 (Homo sapiens, UniProt Q9Y2T5)"
  EC50: "101 to 1000 nM"

Here's the next entry for you.
Ask | # query: EC50 of entry NC(=O)c1ccc(-c2cc(Cc3cc(C(F)(F)F)ccc3F)ccn2)cc1
Reply | 101 to 1000 nM
